Test system: Lolium multiflorum (Ryegrass) seeds
Experiment: whole plant or invertebrate
Format: in vivo
Details: 67 µg/mL, agar germination, 20 °C, evaluated after 12 days, three replicates of ten seeds, relative to DMSO negative control
Non-standard residues stand in square brackets, D forms with d. Residues, ends and D or L forms follow the SMILES beside them. NMeF = CN[C@@H](Cc1ccccc1)C(=O)O; NMeA = CN[C@@H](C)C(=O)O; Sar = CNCC(=O)O
value_kind: Radicle growth inhibition (%)
Write the value in % as a bare number.

# compound, Radicle growth inhibition (%)
rows = [
    ("CC(C)C[C@@H]1NC(=O)[C@H](C)NC(=O)CN(C)C(=O)[C@H](Cc2ccccc2)N(C)C1=O [Compound 22, Cyclo-[Ala-Leu-N-MePhe-N-MeGly]] (cyclo(AL[NMeF][Sar]))", 66),
]

Return reported Radicle growth inhibition (%); argument: CC(C)C[C@@H]1NC(=O)[C@H](C)N(C)C(=O)CNC(=O)[C@H](Cc2ccccc2)N(C)C1=O [Compound 24, Cyclo-[N-MeAla-Leu-N-MePhe-Gly]] (cyclo([NMeA]L[NMeF]G))
81

Now consider CC(C)C[C@@H]1NC(=O)[C@H](C)N(C)C(=O)CN(C)C(=O)[C@H](Cc2ccccc2)NC1=O [Compound 23, Cyclo-[N-MeAla-Leu-Phe-N-MeGly]] (cyclo([NMeA]LF[Sar])) and answer again.
16
